Measurement Parameters: in n-butanol, 310.15 K
Measured Attribute: solubility (mole fraction)
Number, no unit, nothing else.

Any idea what solubility (mole fraction) was measured for CC(=O)c1cccc(O)c1 ?
0.261

====

Measurement Parameters: in n-butanol, 322.15 K
Measured Attribute: solubility (mole fraction)

Any idea what solubility (mole fraction) was measured for CC(=O)c1cccc(O)c1 ?
0.368

====

Measurement Parameters: in n-propanol, 319.15 K
Measured Attribute: solubility (mole fraction)
Number, no unit, nothing else.

Any idea what solubility (mole fraction) was measured for CC(=O)c1cccc(O)c1 ?
0.36

====

Measurement Parameters: in isopropanol, 295.15 K
Measured Attribute: solubility (mole fraction)
Number, no unit, nothing else.

Any idea what solubility (mole fraction) was measured for CC(=O)c1cccc(O)c1 ?
0.201

====

Measurement Parameters: in methanol, 304.15 K
Measured Attribute: solubility (mole fraction)
Number, no unit, nothing else.

Any idea what solubility (mole fraction) was measured for CC(=O)c1cccc(O)c1 ?
0.239

====

Measurement Parameters: in methyl acetate, 301.15 K
Measured Attribute: solubility (mole fraction)
Number, no unit, nothing else.

Any idea what solubility (mole fraction) was measured for CC(=O)c1cccc(O)c1 ?
0.209

====

Measurement Parameters: in n-propanol, 310.15 K
Measured Attribute: solubility (mole fraction)
Number, no unit, nothing else.

Any idea what solubility (mole fraction) was measured for CC(=O)c1cccc(O)c1 ?
0.274

====

Measurement Parameters: in ethanol, 310.15 K
Measured Attribute: solubility (mole fraction)
Number, no unit, nothing else.

Any idea what solubility (mole fraction) was measured for CC(=O)c1cccc(O)c1 ?
0.287

====

Measurement Parameters: in isobutanol, 307.15 K
Measured Attribute: solubility (mole fraction)
Number, no unit, nothing else.

Any idea what solubility (mole fraction) was measured for CC(=O)c1cccc(O)c1 ?
0.235

====

Measurement Parameters: in ethanol, 319.15 K
Measured Attribute: solubility (mole fraction)
Number, no unit, nothing else.

Any idea what solubility (mole fraction) was measured for CC(=O)c1cccc(O)c1 ?
0.361

====

Measurement Parameters: in methanol, 319.15 K
Measured Attribute: solubility (mole fraction)

Any idea what solubility (mole fraction) was measured for CC(=O)c1cccc(O)c1 ?
0.349

====

Measurement Parameters: in n-butanol, 307.15 K
Measured Attribute: solubility (mole fraction)
Number, no unit, nothing else.

Any idea what solubility (mole fraction) was measured for CC(=O)c1cccc(O)c1 ?
0.242

====

Measurement Parameters: in n-butanol, 301.15 K
Measured Attribute: solubility (mole fraction)
Number, no unit, nothing else.

Any idea what solubility (mole fraction) was measured for CC(=O)c1cccc(O)c1 ?
0.203

====

Measurement Parameters: in n-butanol, 313.15 K
Measured Attribute: solubility (mole fraction)
Number, no unit, nothing else.

Any idea what solubility (mole fraction) was measured for CC(=O)c1cccc(O)c1 ?
0.284

====

Measurement Parameters: in ethanol, 289.15 K
Measured Attribute: solubility (mole fraction)
Number, no unit, nothing else.

Any idea what solubility (mole fraction) was measured for CC(=O)c1cccc(O)c1 ?
0.166

====

Measurement Parameters: in isopropanol, 292.15 K
Measured Attribute: solubility (mole fraction)
Number, no unit, nothing else.

Any idea what solubility (mole fraction) was measured for CC(=O)c1cccc(O)c1 ?
0.184

====

Measurement Parameters: in methyl acetate, 325.15 K
Measured Attribute: solubility (mole fraction)
Number, no unit, nothing else.

Any idea what solubility (mole fraction) was measured for CC(=O)c1cccc(O)c1 ?
0.407

====

Measurement Parameters: in n-propanol, 304.15 K
Measured Attribute: solubility (mole fraction)
Number, no unit, nothing else.

Any idea what solubility (mole fraction) was measured for CC(=O)c1cccc(O)c1 ?
0.23

====

Measurement Parameters: in n-propanol, 289.15 K
Measured Attribute: solubility (mole fraction)
Number, no unit, nothing else.

Any idea what solubility (mole fraction) was measured for CC(=O)c1cccc(O)c1 ?
0.152

====

Measurement Parameters: in ethanol, 301.15 K
Measured Attribute: solubility (mole fraction)
Number, no unit, nothing else.

Any idea what solubility (mole fraction) was measured for CC(=O)c1cccc(O)c1 ?
0.225

====

Measurement Parameters: in ethyl acetate, 310.15 K
Measured Attribute: solubility (mole fraction)
Number, no unit, nothing else.

Any idea what solubility (mole fraction) was measured for CC(=O)c1cccc(O)c1 ?
0.254

====

Measurement Parameters: in methanol, 289.15 K
Measured Attribute: solubility (mole fraction)
Number, no unit, nothing else.

Any idea what solubility (mole fraction) was measured for CC(=O)c1cccc(O)c1 ?
0.156

====

Measurement Parameters: in benzene, 307.15 K
Measured Attribute: solubility (mole fraction)
Number, no unit, nothing else.

Any idea what solubility (mole fraction) was measured for CC(=O)c1cccc(O)c1 ?
0.0198

====

Measurement Parameters: in methanol, 313.15 K
Measured Attribute: solubility (mole fraction)
Number, no unit, nothing else.

Any idea what solubility (mole fraction) was measured for CC(=O)c1cccc(O)c1 ?
0.302

====

Measurement Parameters: in benzene, 313.15 K
Measured Attribute: solubility (mole fraction)
Number, no unit, nothing else.

Any idea what solubility (mole fraction) was measured for CC(=O)c1cccc(O)c1 ?
0.0281

====

Measurement Parameters: in isobutanol, 316.15 K
Measured Attribute: solubility (mole fraction)
Number, no unit, nothing else.

Any idea what solubility (mole fraction) was measured for CC(=O)c1cccc(O)c1 ?
0.32

====

Measurement Parameters: in isobutanol, 295.15 K
Measured Attribute: solubility (mole fraction)
Number, no unit, nothing else.

Any idea what solubility (mole fraction) was measured for CC(=O)c1cccc(O)c1 ?
0.146

====

Measurement Parameters: in benzene, 325.15 K
Measured Attribute: solubility (mole fraction)
Number, no unit, nothing else.

Any idea what solubility (mole fraction) was measured for CC(=O)c1cccc(O)c1 ?
0.0614

====

Measurement Parameters: in ethanol, 313.15 K
Measured Attribute: solubility (mole fraction)
Number, no unit, nothing else.

Any idea what solubility (mole fraction) was measured for CC(=O)c1cccc(O)c1 ?
0.308

====

Measurement Parameters: in ethanol, 316.15 K
Measured Attribute: solubility (mole fraction)
Number, no unit, nothing else.

Any idea what solubility (mole fraction) was measured for CC(=O)c1cccc(O)c1 ?
0.335

====

Measurement Parameters: in water, 325.15 K
Measured Attribute: solubility (mole fraction)
Number, no unit, nothing else.

Any idea what solubility (mole fraction) was measured for CC(=O)c1cccc(O)c1 ?
0.00562

====

Measurement Parameters: in ethyl acetate, 298.15 K
Measured Attribute: solubility (mole fraction)
Number, no unit, nothing else.

Any idea what solubility (mole fraction) was measured for CC(=O)c1cccc(O)c1 ?
0.191

====

Measurement Parameters: in ethyl acetate, 301.15 K
Measured Attribute: solubility (mole fraction)
Number, no unit, nothing else.

Any idea what solubility (mole fraction) was measured for CC(=O)c1cccc(O)c1 ?
0.199

====

Measurement Parameters: in isobutanol, 289.15 K
Measured Attribute: solubility (mole fraction)
Number, no unit, nothing else.

Any idea what solubility (mole fraction) was measured for CC(=O)c1cccc(O)c1 ?
0.119

====

Measurement Parameters: in methanol, 298.15 K
Measured Attribute: solubility (mole fraction)

Any idea what solubility (mole fraction) was measured for CC(=O)c1cccc(O)c1 ?
0.203

====

Measurement Parameters: in ethyl acetate, 316.15 K
Measured Attribute: solubility (mole fraction)

Any idea what solubility (mole fraction) was measured for CC(=O)c1cccc(O)c1 ?
0.304

====

Measurement Parameters: in methyl acetate, 304.15 K
Measured Attribute: solubility (mole fraction)
Number, no unit, nothing else.

Any idea what solubility (mole fraction) was measured for CC(=O)c1cccc(O)c1 ?
0.229

====

Measurement Parameters: in ethanol, 298.15 K
Measured Attribute: solubility (mole fraction)
Number, no unit, nothing else.

Any idea what solubility (mole fraction) was measured for CC(=O)c1cccc(O)c1 ?
0.209

====

Measurement Parameters: in methyl acetate, 316.15 K
Measured Attribute: solubility (mole fraction)
Number, no unit, nothing else.

Any idea what solubility (mole fraction) was measured for CC(=O)c1cccc(O)c1 ?
0.324

====

Measurement Parameters: in isopropanol, 325.15 K
Measured Attribute: solubility (mole fraction)
Number, no unit, nothing else.

Any idea what solubility (mole fraction) was measured for CC(=O)c1cccc(O)c1 ?
0.431

====

Measurement Parameters: in ethyl acetate, 295.15 K
Measured Attribute: solubility (mole fraction)
Number, no unit, nothing else.

Any idea what solubility (mole fraction) was measured for CC(=O)c1cccc(O)c1 ?
0.18

====

Measurement Parameters: in isobutanol, 319.15 K
Measured Attribute: solubility (mole fraction)
Number, no unit, nothing else.

Any idea what solubility (mole fraction) was measured for CC(=O)c1cccc(O)c1 ?
0.348

====

Measurement Parameters: in methyl acetate, 295.15 K
Measured Attribute: solubility (mole fraction)
Number, no unit, nothing else.

Any idea what solubility (mole fraction) was measured for CC(=O)c1cccc(O)c1 ?
0.182

====

Measurement Parameters: in water, 292.15 K
Measured Attribute: solubility (mole fraction)

Any idea what solubility (mole fraction) was measured for CC(=O)c1cccc(O)c1 ?
0.00078
